TARGET_SYSTEM: Biotinylated CD33 protein (UniProt P20138)
Sequence (P20138 18-259 limits assumed): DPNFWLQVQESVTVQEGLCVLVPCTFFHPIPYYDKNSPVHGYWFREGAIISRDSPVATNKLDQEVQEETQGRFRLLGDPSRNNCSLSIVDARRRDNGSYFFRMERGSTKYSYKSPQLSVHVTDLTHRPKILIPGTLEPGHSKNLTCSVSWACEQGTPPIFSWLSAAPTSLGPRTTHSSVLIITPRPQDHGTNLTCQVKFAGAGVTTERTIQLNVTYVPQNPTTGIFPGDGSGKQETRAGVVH
PROTOCOL_DETAILS: Octet competition on biotinylated CD33; competitor 426
Grouping key: Octet signal. Bins: low bracket: < -0.01; middle bracket: ≥ -0.01 and < 0.2; high bracket: ≥ 0.2

1) sdCD33_6 (VHH, sdAb from a naive llama phage library; also called 416; sdAb416) VHH: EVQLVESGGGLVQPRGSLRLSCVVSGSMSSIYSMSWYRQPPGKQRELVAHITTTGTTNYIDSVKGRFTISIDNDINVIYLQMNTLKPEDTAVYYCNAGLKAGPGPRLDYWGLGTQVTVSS : high bracket
2) sdCD33_8 (VHH, sdAb from a naive llama phage library; also called 424; sdAb424) VHH: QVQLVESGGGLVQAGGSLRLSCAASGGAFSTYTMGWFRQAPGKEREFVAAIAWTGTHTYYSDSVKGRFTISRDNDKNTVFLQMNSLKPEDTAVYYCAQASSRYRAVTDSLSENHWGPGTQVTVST : high bracket
3) sdCD33_10 (VHH) VHH: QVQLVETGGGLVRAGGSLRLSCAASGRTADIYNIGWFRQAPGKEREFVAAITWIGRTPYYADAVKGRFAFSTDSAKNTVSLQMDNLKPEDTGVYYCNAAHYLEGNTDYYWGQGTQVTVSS : high bracket
4) sdCD33_5 (VHH, sdAb from a naive llama phage library; also called 413; sdAb413) VHH: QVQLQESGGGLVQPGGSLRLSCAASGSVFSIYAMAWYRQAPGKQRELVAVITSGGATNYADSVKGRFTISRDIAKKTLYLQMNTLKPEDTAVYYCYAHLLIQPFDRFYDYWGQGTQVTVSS : middle bracket
5) sdCD33_7 (VHH, sdAb from a naive llama phage library; also called 420; sdAb420) VHH: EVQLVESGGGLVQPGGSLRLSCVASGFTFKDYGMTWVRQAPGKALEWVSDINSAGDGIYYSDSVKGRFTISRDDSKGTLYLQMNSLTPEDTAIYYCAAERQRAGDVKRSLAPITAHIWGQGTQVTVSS : middle bracket
6) sdCD33_3 (VHH) VHH: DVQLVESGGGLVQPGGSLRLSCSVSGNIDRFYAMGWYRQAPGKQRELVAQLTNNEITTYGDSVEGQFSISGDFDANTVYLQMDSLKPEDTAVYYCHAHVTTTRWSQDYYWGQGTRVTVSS : low bracket
7) sdCD33_2 (VHH) VHH: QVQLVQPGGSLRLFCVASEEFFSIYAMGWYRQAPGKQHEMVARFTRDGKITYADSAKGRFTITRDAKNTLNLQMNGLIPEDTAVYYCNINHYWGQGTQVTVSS : middle bracket
8) sdCD33_4 (VHH) VHH: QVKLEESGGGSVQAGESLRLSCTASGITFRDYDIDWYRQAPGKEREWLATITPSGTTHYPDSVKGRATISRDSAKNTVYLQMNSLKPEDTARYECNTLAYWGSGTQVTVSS : low bracket
9) sdCD33_11 (VHH, sdAb from a naive llama phage library; also called 430; sdAb430) VHH: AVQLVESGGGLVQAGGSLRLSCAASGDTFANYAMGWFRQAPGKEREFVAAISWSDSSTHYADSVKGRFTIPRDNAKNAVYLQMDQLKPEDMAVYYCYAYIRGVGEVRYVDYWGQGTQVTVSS : low bracket
